- experimental.target: T1, ZFP SBS#256 (synthetic)
- T1 chain: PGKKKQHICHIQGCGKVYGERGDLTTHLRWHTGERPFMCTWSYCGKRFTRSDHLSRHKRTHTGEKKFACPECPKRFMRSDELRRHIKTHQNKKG
- measurement.protocol: EMSA
- condition.details: tags: MBP fusion
property.label: Kd (nM)
One number for each entry, in nM.

What Kd value was documented for this binder, GCGGGGTCC (dsDNA) DNA 1: GCGGGGTCC DNA 2: GGACCCCGC ?
800
